B1: HDV Ribozyme (parent)
chain: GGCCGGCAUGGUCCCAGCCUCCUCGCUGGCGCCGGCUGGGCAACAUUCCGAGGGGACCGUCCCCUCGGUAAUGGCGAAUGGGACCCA

- Variants of: B1
- Experiment notes: self-cleavage, relative activity (ratio to wild type); higher = more cleavage; co-transcriptional
Could you please report measured self-cleavage for the items listed next?
Could you respond with only the numeric value?

Q. For the variant A8G C18U , what self-cleavage is on record?
A. 0.297

Q. Next: C3A G5A
A. 0.0332

Q. Next: G11U G53A
A. 0.427

Q. Next: G54U C61U
A. 0.895

Q. Next: G38U A70U
A. 0.277

Q. Next: G2U C85A
A. 0.104

Q. Next: C66U U72A
A. 0.525

Q. Next: C58U C75G
A. 0.116

Q. Next: C41U C61A
A. 1.12

Q. Next: A45U C84A
A. 0.446

Q. Next: G6U A16G
A. 0.388
